- Test system: diphosphomevalonate decarboxylase (Streptococcus pneumoniae D39)
- test-description: S. pneumoniae DPM-DC inhibitors, primary screen, biochemical, PK/LDH-coupled NADH fluorescence (AID 556);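 for inhibition: kinetic rate of NADH fluorescence loss reporting ADP formed by the decarboxylase; 0% = full reaction rate with carrier and 100% = no-substrate background rate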
- run-conditions: purified DPM-DC, at 10 µM; hits give high values unless noted
The whole screen tested about 65,000 compounds, of which about 320 (0.49%) were called active. This excerpt belongs to a sample that is enriched for actives.
reported-metric: inhibition

Consider the following illustrative entries.
>  <compound>
C=C(C)CSc1nc(N)c2c3c(sc2n1)CCC3

>  <result-value>
6% (inactive)

$$$$
>  <compound>
Cc1ccc(S(=O)(=O)N2CC(=O)Nc3ccccc32)cc1C

>  <result-value>
inactive

$$$$
>  <compound>
Cc1cccc(N2CCN(C(=O)C3CCN(S(=O)(=O)c4cnc[nH]4)CC3)CC2)c1C

>  <result-value>
inactive

$$$$
>  <compound>
Cc1ccccc1Nc1nnc(C)c(=O)[nH]1

>  <result-value>
2% (inactive)

$$$$
>  <compound>
CC(=O)c1cc(-c2ccccc2)[nH]c1N1CCCC1

>  <result-value>
1% (inactive)

$$$$

Entry under test: COc1ccc(C2CC(c3ccc(Cl)cc3Cl)Nc3nc(N)nn32)cc1OC (stereo unspecified) . Its inhibition was inactive

Entry under test: O=C(Nc1ccccc1N1CCN(C(=O)c2ccccc2)CC1)c1ccc2c(c1)OCO2 . Its inhibition was inactive

Entry under test: c1coc(-c2nc3nc4ccccc4n3nc2-c2ccco2)c1 . Its inhibition was 4% (inactive)

Entry under test: O=C(O)c1cc(S(=O)(=O)N2CCCCCC2)c(Cl)cc1Cl . Its inhibition was inactive

Entry under test: CC1(C)Cc2cccc(OCC(=O)Nc3nccs3)c2O1 . Its inhibition was inactive

---

- Tested on: diphosphomevalonate decarboxylase (Streptococcus pneumoniae D39)
- test-description: S. pneumoniae DPM-DC inhibitors, primary screen, biochemical, PK/LDH-coupled NADH fluorescence (AID 556)
- run-conditions: purified DPM-DC, at 10 µM
In all, about 65,000 compounds went through this assay and about 320 (0.49%) were called active.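 How the source made its calls: active means the 320 compounds with the highest percent inhibition in the single-dose primary screen, excluding strongly autofluorescent ones (cut at about 32% in these data); inactive means the rest, inconclusive results apart.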 The sample holds actives, similar compounds and a random draw of the others, so the mix is not that of the screen.
The reply should name one outcome from 1 (yes) (active), 0 (no) (inactive)

Look over these answered cases.
>  <molecule>
COc1cc(Cl)c(S(=O)(=O)N2CCN(Cc3ccc4c(c3)OCO4)CC2)cc1Cl

>  <category-label>
0 (no)

$$$$
>  <molecule>
CC1CCCN(Cc2nc3c(c(=O)n(C)c(=O)n3C)n2CC(=O)c2ccccc2)C1 (stereo unspecified)

>  <category-label>
0 (no)

$$$$
>  <molecule>
CCOC(=O)c1sc(NC(=O)c2cc(S(=O)(=O)N3CCOCC3)ccc2C)nc1C

>  <category-label>
0 (no)

$$$$

Exam item: // return assay outcome for Cc1nc(NCc2ccccc2)c(C(N)=O)c2c1COC(C)(C)C2
Marked response: 0 (no)

Exam item: // return assay outcome for COc1ccc(-n2nnc3c(=O)n(CC(=O)N4CCC(Cc5ccccc5)CC4)cnc32)cc1
Marked response: 0 (no)

Exam item: // return assay outcome for CCCCSc1nnc(-c2ccc(NC(=O)CC)cc2)n1C
Marked response: 0 (no)

---

- Test system: diphosphomevalonate decarboxylase (Streptococcus pneumoniae D39)
- test-description: S. pneumoniae DPM-DC inhibitors, primary screen, biochemical, PK/LDH-coupled NADH fluorescence (AID 556);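 for inhibition: kinetic rate of NADH fluorescence loss reporting ADP formed by the decarboxylase; 0% = full reaction rate with carrier and 100% = no-substrate background rate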
- run-conditions: purified DPM-DC, at 10 µM; hits give high values unless noted
The whole screen tested about 65,000 compounds, of which about 320 (0.49%) were called active. The list comes from a sample in which actives are over-represented; it also holds close analogues and randomly drawn compounds.
reported-metric: inhibition

Consider the following illustrative entries.
>  <compound>
CC(C)Cc1cc(C(=O)Nc2cc(Br)ccc2O)no1

>  <reported-metric>
inhibition

>  <result-value>
inactive

$$$$
>  <compound>
O=C(NCc1ccccn1)c1cnc2sccn2c1=O

>  <reported-metric>
inhibition

>  <result-value>
27% (inactive)

$$$$
>  <compound>
CSc1ccc(NC(=O)N2CC(C)OC(C)C2)cc1 (stereo unspecified)

>  <reported-metric>
inhibition

>  <result-value>
inactive

$$$$
>  <compound>
N#Cc1c2c(c(N3CCN(CCO)CC3)n3c1nc1ccccc13)CCCC2

>  <reported-metric>
inhibition

>  <result-value>
inactive

$$$$

Entry under test: CCCCOc1ccc(C(C)(O)CCN2CCOCC2)cc1 (stereo unspecified) . Its inhibition was inactive

---

- Test system: diphosphomevalonate decarboxylase (Streptococcus pneumoniae D39)
- test-description: S. pneumoniae DPM-DC inhibitors, primary screen, biochemical, PK/LDH-coupled NADH fluorescence (AID 556)
- run-conditions: purified DPM-DC, at 10 µM
About 320 (0.49%) of roughly 65,000 compounds were called active.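 Rule for the calls: active = the 320 compounds with the highest percent inhibition in the single-dose primary screen, excluding strongly autofluorescent ones (cut at about 32% in these data); inactive = the rest, inconclusive results apart.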 What follows is part of a selection rich in actives, with near analogues and random picks from the rest.
The reply should name one outcome from 1.0 = active, 0.0 = inactive

Look over these answered cases.
>  <molecule>
Cc1cc(C)n(C(=O)c2ccc(C)c(S(=O)(=O)N3CCOCC3)c2)n1

>  <category-label>
0.0

$$$$
>  <molecule>
CCc1nnc(NC(=O)c2cccs2)s1

>  <category-label>
0.0

$$$$
>  <molecule>
Cc1c(C(=O)NCCN2CCOCC2)sc2nc(-c3ccc(F)cc3)cn12

>  <category-label>
0.0

$$$$

Exam item: // return assay outcome for CCN(CC)c1ccc(C(=O)OCC(=O)c2ccco2)cc1
Marked response: 0.0

Exam item: // return assay outcome for CCCCCCOC(=O)NCC(O)c1ccccc1 (stereo not given)
Marked response: 0.0

Exam item: // return assay outcome for O=C1NC2(CCCCC2)N=C1c1ccccc1
Marked response: 0.0

---

- Tested on: diphosphomevalonate decarboxylase (Streptococcus pneumoniae D39)
- test-description: S. pneumoniae DPM-DC inhibitors, primary screen, biochemical, PK/LDH-coupled NADH fluorescence (AID 556);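 for inhibition: kinetic rate of NADH fluorescence loss reporting ADP formed by the decarboxylase; 0% = full reaction rate with carrier and 100% = no-substrate background rate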
- run-conditions: purified DPM-DC, at 10 µM; hits give high values unless noted
The campaign covered roughly 65,000 compounds. About 320 (0.49%) were called active. For the sample, actives were picked, then their nearest neighbours and some compounds at random.
reported-metric: inhibition

Consider the following illustrative entries.
>  <molecule>
Cc1ccc2nc(NC(=O)C3CCN(S(=O)(=O)c4ccc5c(c4)oc(=O)n5C)CC3)sc2c1

>  <result-value>
inactive

$$$$
>  <molecule>
CCOc1ccc(/C(O)=C2/C(=O)C(=O)N(Cc3cccnc3)C2c2ccc(N(C)C)cc2)c(C)c1 (stereo unspecified)

>  <result-value>
2% (inactive)

$$$$
>  <molecule>
CN(CC(=O)NC1CCCCC1)S(=O)(=O)c1cccc2cccnc12

>  <result-value>
inactive

$$$$
>  <molecule>
CCOc1c(N2CCCCC2)c(=O)c1=O

>  <result-value>
inactive

$$$$
>  <molecule>
COC(=O)c1ccccc1NC(=O)Cn1nc(C(F)(F)F)c2c1CCC2

>  <result-value>
inactive

$$$$
>  <molecule>
CN(C)CCNC(CC(=O)Nc1ccc(Cl)c(Cl)c1)C(=O)O (stereo unspecified)

>  <result-value>
inactive

$$$$
>  <molecule>
COc1ccc(C(C)=O)cc1COC(=O)Cn1cnc2ccccc2c1=O

>  <result-value>
inactive

$$$$
>  <molecule>
CCCn1c(SCC(=O)c2ccc3c(c2)OCCO3)nnc1C(C)C

>  <result-value>
4% (inactive)

$$$$

Kindly review the next molecule as well.
Entry under test: COc1cc(C2C(C(=O)Nc3ccccc3OC)=C(C)Nc3ncnn32)ccc1O (stereo unspecified) . Its inhibition was inactive

---

- Tested on: diphosphomevalonate decarboxylase (Streptococcus pneumoniae D39)
- test-description: S. pneumoniae DPM-DC inhibitors, primary screen, biochemical, PK/LDH-coupled NADH fluorescence (AID 556);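 for inhibition: kinetic rate of NADH fluorescence loss reporting ADP formed by the decarboxylase; 0% = full reaction rate with carrier and 100% = no-substrate background rate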
- run-conditions: purified DPM-DC, at 10 µM; hits give high values unless noted
The whole screen tested about 65,000 compounds, of which about 320 (0.49%) were called active. The list comes from a sample in which actives are over-represented; it also holds close analogues and randomly drawn compounds.
reported-metric: inhibition

Consider the following illustrative entries.
>  <molecule>
Cc1c(C(=O)NCC2CCCO2)sc2nc(-c3ccccc3)cn12 (centres undefined)

>  <reported-metric>
inhibition

>  <result-value>
35% (active)

$$$$
>  <molecule>
Cn1c(=NC(=O)C2CC2)sc2cc(F)cc(F)c21

>  <reported-metric>
inhibition

>  <result-value>
inactive

$$$$
>  <molecule>
O=C(Nc1cccc2cccnc12)c1cccc(N2C(=O)CCC2=O)c1

>  <reported-metric>
inhibition

>  <result-value>
3% (inactive)

$$$$
>  <molecule>
COc1ccccc1N1CCN(C(=O)c2ccc(S(=O)(=O)N3CCCCC3)cc2)CC1

>  <reported-metric>
inhibition

>  <result-value>
inactive

$$$$

Entry under test: CCOc1ccc(-n2c(SC(C)C(=O)OC)nc3c(c2=O)SCC3)cc1 (centres undefined) . Its inhibition was 1% (inactive)

Entry under test: O=C(Cn1c(=O)n(Cc2ccco2)c(=O)c2ccccc21)NCC1CCCO1 (centres undefined) . Its inhibition was inactive

Entry under test: O=C(O)c1ccc(-n2cccc2)cc1O . Its inhibition was 1% (inactive)

Entry under test: Cc1ccc(C)c(S(=O)(=O)N2CC(=O)Nc3ccccc32)c1 . Its inhibition was inactive

Entry under test: Cc1cc(C)c(C#N)c(SCS(=O)c2ccc(C(C)(C)C)cc2)n1 (centres undefined) . Its inhibition was inactive

Entry under test: Cc1ccc(S(=O)(=O)N2CCCC2C(=O)NCc2ccco2)cc1 (centres undefined) . Its inhibition was 4% (inactive)

Entry under test: CC(C)c1nc2oc3c(N4CCN(C)CC4)ncnc3c2c2c1CCC2 . Its inhibition was inactive

Entry under test: CC(CNC(=O)c1ccc(Br)o1)NC(=O)c1ccc(Br)o1 (centres undefined) . Its inhibition was 2% (inactive)

Entry under test: Cc1noc(C)c1C(=O)OCC(=O)/C=C1\N(C)c2ccccc2C1(C)C . Its inhibition was inactive

Entry under test: CCOCCN(C=O)c1cccc(OC)c1 . Its inhibition was inactive

Entry under test: CCCC(=O)N=c1sc2cccc(F)c2n1C . Its inhibition was inactive

Entry under test: Cc1ccccc1C(=O)Nc1cccc(-c2nnc(SCC(=O)O)n2C)c1 . Its inhibition was 3% (inactive)

Entry under test: CCCC(C)n1[nH]c(=O)c2c(C)cc(C)nc21 (centres undefined) . Its inhibition was inactive
